Ref: paper PMC12508063

STUDY SYSTEM: CYP2C9 (Homo sapiens)
Sequence (P11712 whole entry): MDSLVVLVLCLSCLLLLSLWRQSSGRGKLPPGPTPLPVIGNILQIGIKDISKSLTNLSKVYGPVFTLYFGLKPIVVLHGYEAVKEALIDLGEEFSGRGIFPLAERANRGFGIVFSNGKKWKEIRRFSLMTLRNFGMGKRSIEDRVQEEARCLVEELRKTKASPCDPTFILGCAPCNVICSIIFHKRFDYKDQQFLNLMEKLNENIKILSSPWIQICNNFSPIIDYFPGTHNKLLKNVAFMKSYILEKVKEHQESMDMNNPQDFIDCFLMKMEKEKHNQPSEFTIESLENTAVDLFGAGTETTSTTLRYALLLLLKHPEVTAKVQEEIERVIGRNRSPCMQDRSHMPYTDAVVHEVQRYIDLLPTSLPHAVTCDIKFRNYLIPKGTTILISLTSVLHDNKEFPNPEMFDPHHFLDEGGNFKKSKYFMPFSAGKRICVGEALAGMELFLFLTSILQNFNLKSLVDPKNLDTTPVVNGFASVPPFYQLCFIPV
MEASUREMENT NOTES: CYP inhibition
EXPERIMENTAL SETUP: human
REPORTED ENDPOINT: inhibition at 10 µM (%)
I only need the number, in %, no unit after it.

Request: inhibition at 10 µM for "Nc1ccc(S(=O)(=O)Nc2ccnn2-c2ccccc2)cc1" ?
Result: 93.9

---

STUDY SYSTEM: CYP3A4 (Homo sapiens)
Sequence (P08684 whole entry): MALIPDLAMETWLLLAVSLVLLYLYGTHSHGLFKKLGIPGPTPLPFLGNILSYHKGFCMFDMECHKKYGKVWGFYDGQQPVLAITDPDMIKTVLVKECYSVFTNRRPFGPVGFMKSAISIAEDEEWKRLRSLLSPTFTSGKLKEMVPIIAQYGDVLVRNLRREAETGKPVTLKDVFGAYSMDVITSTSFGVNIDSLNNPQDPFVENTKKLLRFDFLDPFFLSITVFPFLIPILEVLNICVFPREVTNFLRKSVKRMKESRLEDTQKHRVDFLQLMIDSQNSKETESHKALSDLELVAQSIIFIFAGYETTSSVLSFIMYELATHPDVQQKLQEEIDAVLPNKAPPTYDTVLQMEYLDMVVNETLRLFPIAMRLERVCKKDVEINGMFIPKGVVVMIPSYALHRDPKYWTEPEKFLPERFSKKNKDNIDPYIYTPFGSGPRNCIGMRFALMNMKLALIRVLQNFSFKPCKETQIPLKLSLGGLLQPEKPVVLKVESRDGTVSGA
MEASUREMENT NOTES: in vitro
EXPERIMENTAL SETUP: CYP Inhibition Percentage CYP3A4-M
REPORTED ENDPOINT: inhibition at 10 µM (%)
I only need the number, in %, no unit after it.

Request: inhibition at 10 µM for CC(=O)N1CCN(c2ccc(OCC3COC(Cn4ccnc4)(c4ccc(Cl)cc4Cl)O3)cc2)CC1 (stereo not shown) ?
Result: 95.5

---

MEASUREMENT NOTES: Stability in human plasma
Assay type: in vitro ADME
REPORTED ENDPOINT: % Remaining at 6 hr in Human Plasma (%)
I only need the number, in %, no unit after it.

Some solved entries appear below for comparison.
COMPOUND: Cc1cc(O)ccc1-n1nc2ccc(O)cc2c1Cl [Compound K102, IndCl-o-Me]
VAL: 89.39
--
COMPOUND: Oc1ccc(-n2nc3ccc(O)cc3c2Cl)cc1 [Compound K101, IndCl]
VAL: 91.37
--
COMPOUND: CC(=O)CC(c1ccccc1)c1c(O)c2ccccc2oc1=O (stereo not shown) [Wafarine]
VAL: 111.24

Please examine the following record next.
Request: % Remaining at 6 hr in Human Plasma for Oc1ccc(-n2nc3ccc(O)cc3c2Cl)c(O)c1 [Compound K110, IndCl-o-OH] ?
Result: 105.99
